Tested on: Escherichia coli TOP10;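 further: peptides expressed intracellularly from a pBAD plasmid library in pooled LB shake-flask culture, induced with 0.3% L-arabinose, DNA abundance read by NGS, three biological replicates, DESeq2 with apeglm shrinkage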
Assay: shrunken log2 fold change of peptide-encoding DNA abundance (4.5 h post-induction vs induction); higher = less antimicrobial activity (less host growth inhibition)
Conditions: time post-induction: 4.5 h; library: site-saturation at positions 5, 18, 19, 20
quantityKind: shrunken log2 fold change
Answers are plain numbers.

{"columns": ["recordSequence", "quantityKind", "measured"],
 "data": [
  ["RRIRSRPPRLPRPRPRPAERPRP", "shrunken log2 fold change", 0.0522],
  ["RRIRMRPPRLPRPRPRPCEMPRP", "shrunken log2 fold change", 0.084],
  ["RRIRPRPPRLPRPRPRPQCSPRP", "shrunken log2 fold change", -0.0986],
  ["RRIRDRPPRLPRPRPRPLRVPRP", "shrunken log2 fold change", 0.679],
  ["RRIRWRPPRLPRPRPRPRLNPRP", "shrunken log2 fold change", 0.545]
]}

Each of the following entries comes with a recorded value; kindly state shrunken log2 fold change for each.
1. RRIRHRPPRLPRPRPRPVFMPRP
2. RRIRNRPPRLPRPRPRPWLGPRP

1. -0.311
2. 0.0222
